# Assay system: WDR5 (UniProt P61964 22-334)
# Assay text: SPR
Assay metric: Kd (nM)
// note: answer is a bare numeric in nM

In: Could you share which Kd value was measured for GGGGGCTGGACCCCTCAACT (structured_DNA) [WMiApt-1] ?
Out: 138
